protocol_notes: In vitro cytotoxicity, MTT assay
Assay type: cell-based
condition_description: human, HepG2 cells; HepG2, 1000 μg/mL, 24 h, control = 100; read-out: Cell Viability
Note to self: viability at 24 h, 1000 μg/mL under 200% means Fulfilled, ties and anything higher get Not fulfilled.

Please review the following examples before continuing.
Cc1cccc2cc(C=NNC(=S)Nc3cccc(F)c3)c(N3CCCCC3)nc12; Fulfilled
Cc1ccc2nc(N3CCCCC3)c(C=NNC(=S)NCc3ccccc3)cc2c1; Fulfilled
Cc1ccc2nc(N3CCCCC3)c(C=NNC(=S)NCCN3CCOCC3)cc2c1; Fulfilled

[ask] Please check: viability at 24 h, 1000 μg/mL for Cc1cccc2cc(C=NNC(=S)Nc3ccccc3Cl)c(N3CCCCC3)nc12 , strictly under 200% or not?
[reply] Not fulfilled

[ask] Please check: viability at 24 h, 1000 μg/mL for Cc1cccc2cc(C=NNC(=S)NCc3ccccc3)c(N3CCCCC3)nc12 , strictly under 200% or not?
[reply] Fulfilled

[ask] Please check: viability at 24 h, 1000 μg/mL for Cc1ccc2nc(N3CCCCC3)c(C=NNC(=S)Nc3ccc(Cl)cc3)cc2c1 , strictly under 200% or not?
[reply] Fulfilled

[ask] Please check: viability at 24 h, 1000 μg/mL for Cc1cccc2cc(C=NNC(=S)Nc3ccc(Cl)cc3)c(N3CCCCC3)nc12 , strictly under 200% or not?
[reply] Not fulfilled

[ask] Please check: viability at 24 h, 1000 μg/mL for Cc1cccc2cc(C=NNC(=S)Nc3cccc(Cl)c3)c(N3CCCCC3)nc12 , strictly under 200% or not?
[reply] Fulfilled

The reported numbers originate from paper PMC7866225.
